B1: STK38L (parent)
chain: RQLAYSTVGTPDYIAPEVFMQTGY

Variants of: B1
Assay Method Text: protein stability index of a GFP-peptide fusion (GPS, HEK-293T) (PSI 1-6); higher = more stable;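 further: lentivirally expressed fusions sorted by FACS into six bins by GFP to DsRed ratio, PSI derived from sequencing read proportions per bin multiplied by bin number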
Reported Conditions: c terminus: a fixed tail appended
Measured Endpoint: protein stability index
I'd appreciate a reply containing only the number, no unit.

## Task Find the measured protein stability index of Q2N and report it.
## Result 2.16

## Task Give protein stability index for the following variant: G9M
## Result 2.59

## Task // fetch protein stability index given entry V18W
## Result 1.92
